Test system: P. falciparum stage V gametocytes
Set-up: BacTiter-Glo ATP luminescence viability of purified stage V gametocytes in 384-well plates, per cent inhibition versus DMSO
Settings: 48 h, 5 µM; inhibitor
Out of some 13,000 compounds screened, about 3,200 (25%) showed an effect of 50% or more. The list shows a part of the results.

compound: Clc1cnc2ccc3c(c2c1CCN1CCC(NCc2cc4c(cn2)OCCO4)CC1)OCCO3 [TCMDC-134566]
measure unit: %
% Inhibition: 24.75
//
compound: Cc1ccccc1-c1nc2c(CN3CCC(O)(c4ccccc4)CC3)c(O)ccc2[nH]1 [TCMDC-136533]
measure unit: %
% Inhibition: 40.24
//
compound: CCCc1cc(Cc2cnc(N)nc2N)cc(CCC)c1OCCCCCC(=O)OCC [TCMDC-137289]
measure unit: %
% Inhibition: -20.26
//
compound: O=C(Nc1ccc(-c2ccc(-c3nc4ccccc4[nH]3)s2)cc1)c1ccncc1 [TCMDC-136954]
measure unit: %
% Inhibition: 11.16
//
compound: N=C1c2ccccc2CN1CC(=O)c1ccc(Cl)c(Cl)c1 [TCMDC-123783]
measure unit: %
% Inhibition: -26.95

----------
System: P. falciparum stage V gametocytes
Set-up: BacTiter-Glo ATP luminescence viability of purified stage V gametocytes in 384-well plates, per cent inhibition versus DMSO
Settings: 48 h, 5 µM; inhibitor
Hit rate of the full screen: of about 13,000 compounds, about 3,200 (25%) showed an effect of 50% or more. This is one part of the list.
Here the recorded % Inhibition is given for each entry.

smiles representation: O=C(Nc1ccccc1)N(Cc1ccccc1-c1cccc(CNCc2ccc3c(c2)OCO3)c1)C1CCN(Cc2ccccc2)CC1
test target: P. falciparum stage V gametocytes
% Inhibition (%): 47.74

smiles representation: NCc1ccc(-c2ccccc2CN(C(=O)Nc2ccccc2)C2CCN(Cc3ccccc3)CC2)cc1
test target: P. falciparum stage V gametocytes
% Inhibition (%): 94.87

smiles representation: O=C(Nc1ccccc1)N(Cc1ccccc1-c1cccc(CNCCc2ccccc2)c1)C1CCN(Cc2ccccc2)CC1
test target: P. falciparum stage V gametocytes
% Inhibition (%): 102.3

smiles representation: O=C(Nc1ccccc1)N(Cc1cccc(-c2cccc(CNCCc3ccccc3)c2)c1)C1CCN(Cc2ccccc2)CC1
test target: P. falciparum stage V gametocytes
% Inhibition (%): 90.55

----------
Here the recorded % Inhibition is given for each entry.
Test system: P. falciparum stage V gametocytes
Parameters: BacTiter-Glo ATP luminescence viability of purified stage V gametocytes in 384-well plates, per cent inhibition versus DMSO
Settings: 48 h, 5 µM; inhibitor
The whole screen tested about 13,000 compounds, of which about 3,200 (25%) showed an effect of 50% or more. The list shows a part of the results.

compound: CC(CN(C)C)C(=O)Nc1cccc(-c2ccc(-c3nc4ccccc4[nH]3)s2)c1 (stereo not shown)
measure unit: %
% Inhibition: -38.48

compound: CCn1c(-c2nonc2N)nc2c(-c3cccc(NC(=O)Nc4ccccc4OC)c3)ncc(OCCCN)c21
measure unit: %
% Inhibition: 111.9

compound: CCn1c(-c2nonc2N)nc2cnc(Oc3cccc(NC(=O)c4ccc(OCCN(C(C)C)C(C)C)cc4)c3)cc21
measure unit: %
% Inhibition: -15.21

compound: COc1ccccc1NC(=O)Nc1cccc(-c2ccc(-c3nc4cccc(C)c4[nH]3)s2)c1
measure unit: %
% Inhibition: 0.164

----------
System: P. falciparum stage V gametocytes
Set-up: BacTiter-Glo ATP luminescence viability of purified stage V gametocytes in 384-well plates, per cent inhibition versus DMSO
Conditions: 48 h, 5 µM; inhibitor
In all, about 13,000 compounds went through this assay and about 3,200 (25%) showed an effect of 50% or more. The list shows a part of the results.
Here the recorded % Inhibition is given for each entry.

molecule: CCN1CCC(N(Cc2ccc(-c3ccc(C(F)(F)F)cc3)cc2)C(=O)Cn2c(CCc3cccc(F)c3F)cc(=O)c3cn(C)nc32)CC1
test target: P. falciparum stage V gametocytes
% Inhibition: 59.01%

molecule: CC1(C)N=C(N)N=C(N)N1OCCCc1cccc(C(F)(F)F)c1
test target: P. falciparum stage V gametocytes
% Inhibition: -2.569%

molecule: Cc1cc(N[C@@H](Cc2ccccc2)C(=O)NCc2cccc(F)c2)nc(NCCc2cccnc2)n1
test target: P. falciparum stage V gametocytes
% Inhibition: 63.38%

molecule: CN(Cc1cccc(F)c1)C1CCCN(c2cc(NC(=O)c3ccccc3)ccn2)C1 (centres unmarked)
test target: P. falciparum stage V gametocytes
% Inhibition: 1.109%

molecule: Cc1cc(N[C@@H](Cc2ccccc2)C(=O)NCc2cccc(F)c2)nc(Nc2ccccc2)n1
test target: P. falciparum stage V gametocytes
% Inhibition: -8.236%

molecule: CN(c1ccccc1)c1ccnc(/N=C(\N)Nc2ccc(Cl)cc2)n1
test target: P. falciparum stage V gametocytes
% Inhibition: 49.31%

molecule: Cc1ccc(CNC(=O)[C@H](Cc2ccccc2)Nc2cc(C)nc(NCCc3ccc(F)cc3)n2)cc1
test target: P. falciparum stage V gametocytes
% Inhibition: 66.59%

molecule: Cc1ccc(CNC(=O)[C@H](Cc2ccccc2)Nc2cc(C)nc(NCc3ccccc3C)n2)cc1
test target: P. falciparum stage V gametocytes
% Inhibition: 48.7%

----------
Here the recorded % Inhibition is given for each entry.
Tested on: P. falciparum stage V gametocytes
Parameters: BacTiter-Glo ATP luminescence viability of purified stage V gametocytes in 384-well plates, per cent inhibition versus DMSO
Details: 48 h, 5 µM; inhibitor
The campaign covered roughly 13,000 compounds. About 3,200 (25%) showed an effect of 50% or more. The list shows a part of the results.
readout name: % Inhibition

molecule: Cc1nc2nc(N)nc(N)c2c(C)c1Cc1cccs1 [TCMDC-137642]
readout name: % Inhibition
data value: -3.344%

molecule: COc1cccc(-c2ccc3c(-c4cccc(S(C)(=O)=O)c4)cnc(N)c3c2)c1 [TCMDC-134495]
readout name: % Inhibition
data value: 30.55%

molecule: CCCNCc1ccc(-c2ccc(CN(CCOC)C(=O)CC3CCCC3=O)cc2)nc1 (stereo not shown) [TCMDC-141532]
readout name: % Inhibition
data value: 3.565%

molecule: NS(=O)(=O)c1cccc(Br)c1 [TCMDC-123819]
readout name: % Inhibition
data value: -1.825%

molecule: CN(C)S(=O)(=O)c1cc(-c2ccc3nccc(-c4cccc(S(N)(=O)=O)c4)c3c2)cnc1N [TCMDC-134230]
readout name: % Inhibition
data value: 96.42%

molecule: O=C(NCCCCCN1CCCN(C(=O)Nc2ccc(F)c(C(F)(F)F)c2)CC1)C1CC1c1ccc(Cl)c(Cl)c1 (stereo not shown) [TCMDC-136254]
readout name: % Inhibition
data value: 10.75%

molecule: COc1cc(F)c2ncc(Cl)c([C@H](O)CN3CCC(NCc4cc5c(cn4)OCCO5)CC3)c2c1 [TCMDC-135474]
readout name: % Inhibition
data value: 10.97%

molecule: NS(=O)(=O)c1cccc(-c2ccc3nccc(-c4cccc(S(N)(=O)=O)c4)c3c2)c1 [TCMDC-138902]
readout name: % Inhibition
data value: 75.33%

molecule: O=C(Nc1ccc(F)c(C(F)(F)F)c1)NC1CCN(CCCCCNC(=O)C2CC2c2ccc(Cl)c(Cl)c2)CC1 (stereo not shown) [TCMDC-136259]
readout name: % Inhibition
data value: 97.75%

molecule: C#CCN(Cc1cc2c(=O)[nH]c(N)nc2cc1C)c1ccc(C(=O)N[C@@H](CCC(=O)O)C(=O)O)cc1 [TCMDC-132041]
readout name: % Inhibition
data value: 1.845%

molecule: NS(=O)(=O)c1cccc(-c2ccc3c(=O)[nH]cnc3c2)c1 [TCMDC-136756]
readout name: % Inhibition
data value: 63.64%

molecule: CS(=O)(=O)c1cccc(-c2cnc(N)c3cc(-c4ccc5c(c4)OCO5)ccc23)c1 [TCMDC-134515]
readout name: % Inhibition
data value: -1.728%

molecule: O=C(Nc1ccc(F)c(C(F)(F)F)c1)N[C@H]1CCN(CCCCCNC(=O)C2CC2c2ccc(Cl)c(Cl)c2)C1 (stereo partly shown) [TCMDC-136270]
readout name: % Inhibition
data value: 88.79%

molecule: CS(=O)(=O)c1cccc(-c2cnc(N)c3cc(-c4cccc(F)c4)ccc23)c1 [TCMDC-134493]
readout name: % Inhibition
data value: 8.942%

molecule: NS(=O)(=O)Cc1cccc(-c2ccnc3ccc(-c4cccc(S(N)(=O)=O)c4)cc23)c1 [TCMDC-134159]
readout name: % Inhibition
data value: 58.63%

molecule: CCCNCc1ccc(-c2ccc(CN(CCOC)C(=O)[C@H]3CCCO3)cc2)nc1 [TCMDC-141530]
readout name: % Inhibition
data value: 80.98%

----------
System: P. falciparum stage V gametocytes
Parameters: BacTiter-Glo ATP luminescence viability of purified stage V gametocytes in 384-well plates, per cent inhibition versus DMSO
Settings: 48 h, 5 µM; inhibitor
The campaign covered roughly 13,000 compounds. About 3,200 (25%) showed an effect of 50% or more. This is one part of the list.

compound: O=C(NCc1ccc(Cl)c(Cl)c1)[C@H]1CNCCN1C(=O)c1ccccc1 [TCMDC-141240]
measure unit: %
% Inhibition: 16.71
//
compound: O=C(O)c1ccc2nc(-c3ccc(-c4ccccc4)cc3)n(C3CCN(Cc4ccc(-c5ncc[nH]5)cc4)CC3)c2c1 [TCMDC-134669]
measure unit: %
% Inhibition: 12.72
//
compound: CCOc1ccc(NC(=O)c2cn3nc(-c4ccc(OCC)cc4)cc3nc2C2CCNCC2)cc1 [TCMDC-125277]
measure unit: %
% Inhibition: 105.9
//
compound: CCn1c(CN2CCN(Cc3ccccc3)CC2)nc2cc(NC(=O)c3cccs3)ccc21 [TCMDC-125164]
measure unit: %
% Inhibition: 1.939
//
compound: Cc1cccc2[nH]c(-c3ccc(-c4ccc(NC(=O)Nc5ccc(Cl)c(Cl)c5)cc4)cc3)nc12 [TCMDC-133281]
measure unit: %
% Inhibition: -29.93
//
compound: Cc1ccc2nc(C)n(C3CCN(C(=O)Cc4ccc(F)c(F)c4)CC3)c2c1 [TCMDC-124793]
measure unit: %
% Inhibition: 84.63
//
compound: Cc1cnc(C[S+]([O-])c2nc3ccc(C(F)(F)F)cc3[nH]2)cc1OCc1ccccc1 (centres unmarked) [TCMDC-131542]
measure unit: %
% Inhibition: 10.44
//
compound: CCC(C)NS(=O)(=O)c1ccc2nc(Nc3ccc(C)cc3)n(C3CCCCC3C)c2c1 (centres unmarked) [TCMDC-136231]
measure unit: %
% Inhibition: -48.39
